- TARGET_OF_ASSAY: human arginase I (hargI) (Homo sapiens)
- Construct: TEV protease site and linker (N); made in house; host or cells: E. coli BL21 (DE3) RIL
- Sequence (P05089 with tags, fused parts or gaps): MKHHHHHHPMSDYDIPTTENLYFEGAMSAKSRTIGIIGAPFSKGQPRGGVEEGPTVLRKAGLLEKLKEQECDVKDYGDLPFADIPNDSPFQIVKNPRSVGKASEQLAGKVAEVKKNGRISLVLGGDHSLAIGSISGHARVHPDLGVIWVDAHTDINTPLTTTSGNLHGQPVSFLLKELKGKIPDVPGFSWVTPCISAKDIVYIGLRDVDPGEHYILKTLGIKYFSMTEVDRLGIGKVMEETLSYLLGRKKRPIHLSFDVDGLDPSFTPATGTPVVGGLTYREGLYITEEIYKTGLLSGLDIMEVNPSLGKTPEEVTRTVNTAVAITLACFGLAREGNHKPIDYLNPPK
- ASSAY_COMMENT: Dose-response of ABH on hargI in presence/absence of REGNH, L-arginine metabolism
- Format: biochemical
- EXPERIMENTAL_CONDITIONS: ABH on hargI; printed in parentheses after 'those of the apo-enzyme'; the comparison is with hargI + 1 mM REGNH
MEASURED_QUANTITY: IC50
Please answer in the form of a number followed by its unit of measurement.

What value of measured IC50 is listed for N[C@@H](CCCCB(O)O)C(=O)O [ABH, 2-(S)-amino-6-boronohexanoic acid] ?
1000 nM

The measured values listed here are drawn from paper PMC7925462.
